Data provenance is patent EP1652858A1.

molecular target: HLA-A0201 (human); assay: competition vs labelled reference peptide
measure: log10 Ki (log10 of the value in nM)
Scale: log10; quantity: Ki; unit before log: nM

Here is how some binders turned out for log10 Ki.
{"binder": "FIPVESMET (modifications not checked)", "measure": "log10 Ki", "observed": 2.97}
{"binder": "MALYDVVST (modifications not checked)", "measure": "log10 Ki", "observed": 3.06}
{"binder": "CLVDYPYRL (modifications not checked)", "measure": "log10 Ki", "observed": 2.64}
{"binder": "YQATVCARA (modifications not checked)", "measure": "log10 Ki", "observed": 1.30}
{"binder": "GMFDSSVLC (modifications not checked)", "measure": "log10 Ki", "observed": 1.85}

Lookup: Requested read-out: log10 Ki. Entry: NIIMYAPTL (modifications not checked)
Found: 1.85

Lookup: Requested read-out: log10 Ki. Entry: LVLNPSVAA (modifications not checked)
Found: 3.46

Lookup: Requested read-out: log10 Ki. Entry: PLLLLLLAL (modifications not checked)
Found: 3.82
